Reference source: a collection of fitness landscapes (doi:10.1016/j.celrep.2020.107928)

Listed here are variants together with their documented one-hybrid fitness for binding NBS DNA.
B1: Caulobacter ParB omega fusion; a variant is named by its letters at X, in order, B8GW30 (parent)
chain: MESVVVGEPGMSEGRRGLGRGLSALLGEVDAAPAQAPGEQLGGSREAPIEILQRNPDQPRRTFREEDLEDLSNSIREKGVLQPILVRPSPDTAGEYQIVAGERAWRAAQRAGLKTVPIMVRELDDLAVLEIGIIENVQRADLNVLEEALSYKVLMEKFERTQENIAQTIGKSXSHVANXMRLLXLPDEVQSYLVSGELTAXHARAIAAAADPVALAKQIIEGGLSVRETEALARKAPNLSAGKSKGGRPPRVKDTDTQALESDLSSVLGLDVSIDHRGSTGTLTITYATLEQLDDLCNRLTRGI

- Variants of: B1
- assayComment: one-hybrid fitness for binding NBS DNA (the Noc-binding site; scaled: cognate 1, non-cognate 0); higher = stronger binding
- runParameters: with NBS DNA site
Whole data set: some 81,000 sequences, median “one-hybrid fitness for binding NBS DNA” near -0.1, cut for the highest 2% near 0.36. The full list was thinned out, with the highest values kept by preference.
valueType: one-hybrid fitness for binding NBS DNA

RCNV :: ≤ 0.2
RNRT :: 0.391
PADY :: ≤ 0.2
QRMS :: 0.623
RCRV :: 0.257
TNTI :: ≤ 0.2
RNKD :: ≤ 0.2
SPDS :: ≤ 0.2
TSRL :: ≤ 0.2
QRMP :: ≤ 0.2
TYLE :: ≤ 0.2
IITW :: ≤ 0.2
TSGY :: ≤ 0.2
PAQI :: ≤ 0.2
RNDT :: ≤ 0.2
RNKT :: 0.46
MESV :: ≤ 0.2
QAEP :: ≤ 0.2
QNWS :: ≤ 0.2
RRVV :: 0.229
VNET :: ≤ 0.2
